# measured_target: Sortase A (SrtA) (Staphylococcus aureus, UniProt Q2FV99)
# Construct: SrtA residues Gln-60-Lys-206 (SrtA ΔN59), from S. aureus USA300, 6 × His tag
# Sequence (Q2FV99 60-206): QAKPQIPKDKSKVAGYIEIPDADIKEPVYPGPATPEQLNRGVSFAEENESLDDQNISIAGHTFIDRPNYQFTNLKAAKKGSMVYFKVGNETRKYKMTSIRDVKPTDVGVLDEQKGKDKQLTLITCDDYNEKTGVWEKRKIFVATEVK
# protocol_summary: biochemical
# Set-up: FRET cleavage of Abz-LPATG-Dap(Dnp)-NH2 by purified SrtA, fluorescence 309/420 nm
# setup_conditions: library screen; read-out: Relative inhibition rate (%)
inhibition at 64 µg/mL listing for selected molecules.
API: value field is a number in %; no unit string.

Answered cases to consult:
>  <molecule>
O=c1c(O[C@@H]2O[C@@H](CO)[C@H](O)[C@H]2O)c(-c2ccc(O)c(O)c2)oc2cc(O)cc(O)c12

>  <readout_units>
%

>  <inhibition at 64 µg/mL>
45.3

$$$$
>  <molecule>
COc1cc(-c2oc3cc(O)cc(O)c3c(=O)c2O[C@@H]2O[C@H](CO[C@@H]3O[C@@H](C)[C@H](O)[C@@H](O)[C@H]3O)[C@@H](O)[C@H](O)[C@H]2O)ccc1O [Narcissin]

>  <readout_units>
%

>  <inhibition at 64 µg/mL>
44.5

$$$$
>  <molecule>
O=C(/C=C/c1ccc(O)c2c1[C@H](C(=O)O)[C@@H](c1ccc(O)c(O)c1)O2)O[C@H](Cc1ccc(O)c(O)c1)C(=O)O

>  <readout_units>
%

>  <inhibition at 64 µg/mL>
51.7

$$$$
>  <molecule>
COc1ccc(-c2cc(=O)c3c(OC)cc(OC)c(OC)c3o2)cc1

>  <readout_units>
%

>  <inhibition at 64 µg/mL>
27.4

$$$$
>  <molecule>
COc1c(O[C@@H]2O[C@H](CO)[C@@H](O)[C@H](O)[C@H]2O)cc2occ(-c3ccc(O)cc3)c(=O)c2c1O

>  <readout_units>
%

>  <inhibition at 64 µg/mL>
20

$$$$

Please look at the following molecule next.
q: Name the recorded inhibition at 64 µg/mL of the item O=c1c(O[C@@H]2O[C@H](CO)[C@@H](O)[C@H](O)[C@H]2O[C@@H]2OC[C@@H](O)[C@H](O)[C@H]2O)c(-c2ccc(O)cc2)oc2cc(O)cc(O)c12 [Leucoside] in your answer.
a: 27.3
